biological target: Protein cereblon/Tyrosine-protein kinase ABL1/Breakpoint cluster region protein (Homo sapiens, UniProt P00519+P11274+Q96SW2, T315I)
I'd appreciate it if you could supply EC50 values for the items below.
Numbers only, in nM.

**Query** Suppose we examine the molecule C#CCCCC(=O)N1CCN(c2cc(Nc3ncc(/C=C/c4cccc(F)c4)s3)nc(C)n2)CC1 ; what EC50 value has been reported?
**Result** 770

For each of the molecules below, note its EC50.
1. Cc1cccc(/C=C/c2cnc(Nc3cc(N4CCN(C(=O)CCCc5cn(CCOCCOCCOCCOCCNc6cccc7c6C(=O)N(C6CCC(=O)NC6=O)C7=O)nn5)CC4)nc(C)n3)s2)c1 (configuration not stated)
2. O=C1CCC(N2C(=O)c3cccc(NCCOCCOCCOCCn4cc(CCCC(=O)N[C@@H]5CCN(c6ncc(C(=O)Nc7ccc(OC(F)(F)Cl)cc7)cc6-c6cc[nH]n6)C5)nn4)c3C2=O)C(=O)N1 (some centres not stated)
3. C#CCCCC(=O)N1CCN(c2cc(Nc3ncc(/C=C/c4ccc(F)cc4)s3)nc(C)n2)CC1
4. C#CCCCC(=O)N1CCN(c2cc(Nc3ncc(/C=C/c4ccc(F)c(F)c4)s3)nc(C)n2)CC1

**Result**
1: 6100; 2: 1020; 3: 3200; 4: 570
